Recorded values, source patent US5011854A.

Listing of recorded pIC50 by entry.
- target_system: 12-lipoxygenase (Bos taurus, UniProt F1MFA8)
- Construct: a bovine platelet-derived preparation was used as the 12-lipoxygenase source; from tissue; host or cells: bovine platelets
- Sequence (F1MFA8 1-663): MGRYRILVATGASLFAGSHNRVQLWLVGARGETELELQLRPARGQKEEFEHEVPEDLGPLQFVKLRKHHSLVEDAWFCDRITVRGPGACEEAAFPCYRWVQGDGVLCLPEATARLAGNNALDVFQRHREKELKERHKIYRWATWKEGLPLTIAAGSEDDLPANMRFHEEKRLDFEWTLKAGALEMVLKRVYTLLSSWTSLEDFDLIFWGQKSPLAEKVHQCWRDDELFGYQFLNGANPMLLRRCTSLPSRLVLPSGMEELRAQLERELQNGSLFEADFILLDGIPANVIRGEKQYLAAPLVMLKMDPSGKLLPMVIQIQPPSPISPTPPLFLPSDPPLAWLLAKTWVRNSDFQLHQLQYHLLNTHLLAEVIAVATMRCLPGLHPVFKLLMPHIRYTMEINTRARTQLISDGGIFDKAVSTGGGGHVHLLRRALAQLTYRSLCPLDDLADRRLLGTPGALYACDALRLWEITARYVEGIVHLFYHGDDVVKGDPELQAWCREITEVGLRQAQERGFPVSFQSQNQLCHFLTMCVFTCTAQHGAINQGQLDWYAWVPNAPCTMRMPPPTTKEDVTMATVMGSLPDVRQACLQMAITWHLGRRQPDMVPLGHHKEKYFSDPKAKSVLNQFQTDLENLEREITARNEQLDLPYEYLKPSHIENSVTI
- assay_remarks: Platelet 12-lipoxygenase inhibiting activity (Test Example 2, [14C]-arachidonic acid, TLC)
- Type: biochemical
- run_conditions: bovine platelet-derived preparation; 20 μM [14C]-arachidonic acid; pH 7.4; 30° C., 10 min; TLC/scintillation; read-out: Inhibitory Activity IC50, 12-Lipoxygenase
Remember, pIC50 is on a log scale: it is -log10 of the molar concentration.

[
  {
    "structure_as_smiles": "CCCCCCCCCCCCCCCC(=O)N(O)CCCCCNC(=O)CCC(=O)OC",
    "pIC50": 6.00
  },
  {
    "structure_as_smiles": "CCCCCCCCCCCC(=O)N(O)CCCCCNC(=O)CCC(=O)O",
    "pIC50": 7.46
  }
]

Recall the reported pIC50 of CCCCCCCCCCCCCCCCCC(=O)N(O)CCCCCNC(=O)CCC(=O)OC when tested on 12-lipoxygenase (Bos taurus, UniProt F1MFA8).
4.49
